target: Casein kinase II subunit alpha (Homo sapiens) (UniProt P68400); experiment: Inhibition of human CK2alpha using RRRDDDSDDD peptide substrate at 200 uM by P81 filter-binding assay; design: scale not given: the % may be the effect or the level left
Sequence (P68400 whole entry, looked up): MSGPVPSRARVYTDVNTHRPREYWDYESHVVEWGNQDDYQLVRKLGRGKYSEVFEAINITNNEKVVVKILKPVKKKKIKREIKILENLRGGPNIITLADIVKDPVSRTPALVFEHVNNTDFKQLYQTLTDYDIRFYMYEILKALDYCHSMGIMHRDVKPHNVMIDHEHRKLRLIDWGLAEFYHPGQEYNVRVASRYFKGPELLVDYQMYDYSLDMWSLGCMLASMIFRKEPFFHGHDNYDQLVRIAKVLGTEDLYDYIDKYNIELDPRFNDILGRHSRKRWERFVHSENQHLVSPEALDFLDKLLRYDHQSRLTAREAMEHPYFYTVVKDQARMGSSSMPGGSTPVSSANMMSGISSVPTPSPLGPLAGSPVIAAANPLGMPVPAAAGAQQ
Metric: Activity (%)
One number for each entry, in %.

Solved entries (count: 3):
Compound	Assay System	Activity (%)
OC(CCn1nc2c(Br)c(Br)c(Br)c(Br)c2n1)c1cccc(Br)c1 (configuration not stated)	Casein kinase II subunit alpha (Homo sapiens) (UniProt P68400)	43.4
OC(CCn1nc2c(Br)c(Br)c(Br)c(Br)c2n1)c1ccc(Cl)cc1 (configuration not stated)	Casein kinase II subunit alpha (Homo sapiens) (UniProt P68400)	45.4
OC(CCn1nc2c(Br)c(Br)c(Br)c(Br)c2n1)c1ccc(Br)cc1 (configuration not stated)	Casein kinase II subunit alpha (Homo sapiens) (UniProt P68400)	33.5

Quick batch: Activity for everything below.
1. OC(CCn1nc2c(Br)c(Br)c(Br)c(Br)c2n1)c1ccccc1 (racemic)
2. OC(CCn1nc2c(Br)c(Br)c(Br)c(Br)c2n1)c1cccc(Cl)c1 (configuration not stated)
3. COc1cccc(C(O)CCn2nc3c(Br)c(Br)c(Br)c(Br)c3n2)c1 (configuration not stated)
4. OC(CCn1nc2c(Br)c(Br)c(Br)c(Br)c2n1)c1ccc(F)cc1 (configuration not stated)

### Response
31.1
23.8
87.5
35.4

====

molecular target: Casein kinase II subunit alpha (Homo sapiens) (UniProt P68400); experiment: Inhibition of human CK2alpha using RRRDDDSDDD peptide substrate at 20 uM by P81 filter-binding assay; set-up: scale not given: the % may be the effect or the level left
Would you kindly list Activity for each of these compounds?
One number for each entry, in %.

Solved entries (count: 5):
Compound	Unit Of Measure	Activity
OC(CCn1nc2c(Br)c(Br)c(Br)c(Br)c2n1)c1ccc(Cl)cc1 (configuration not stated)	%	95.6
OC(CCn1nc2c(Br)c(Br)c(Br)c(Br)c2n1)c1cccc(Cl)c1 (configuration not stated)	%	74.9
COc1cccc(C(O)CCn2nc3c(Br)c(Br)c(Br)c(Br)c3n2)c1 (configuration not stated)	%	95.1
OC(CCn1nc2c(Br)c(Br)c(Br)c(Br)c2n1)c1ccccc1 (racemic)	%	93
OC(CCn1nc2c(Br)c(Br)c(Br)c(Br)c2n1)c1ccc(Br)cc1 (configuration not stated)	%	97.4

Quick batch: Activity for everything below.
1. OC(CCn1nc2c(Br)c(Br)c(Br)c(Br)c2n1)c1cccc(Br)c1 (configuration not stated)
2. OC(CCn1nc2c(Br)c(Br)c(Br)c(Br)c2n1)c1ccc(F)cc1 (configuration not stated)

### Response
[96.6, 91.4]

====

Would you kindly list viability at 50 µM for each of these compounds?
test system: CCRF-CEM; assay: Anticancer activity against human CCRF-CEM cells assessed as cell viability at 50 uM after 24 hrs by MTT assay; format: functional; conditions: read-out: Activity
Answers are plain numbers, in %.

Solved entries (count: 3):
Compound	viability at 50 µM, %
C[C@H](O)Cn1nc2c(Br)c(Br)c(Br)c(Br)c2n1	72
OC(CCn1nc2c(Br)c(Br)c(Br)c(Br)c2n1)c1ccccc1 (racemic)	66
C[C@@H](O)CCn1nc2c(Br)c(Br)c(Br)c(Br)c2n1	69

### Prompt Which viability at 50 µM is reported with CCRF-CEM for this entry: OCC(O)Cn1nc2c(Br)c(Br)c(Br)c(Br)c2n1 (racemic) ?
### Response 47

====

tested on: CCRF-CEM; assay: Anticancer activity against human CCRF-CEM cells assessed as cell viability at 100 uM after 24 hrs by MTT assay; format: functional; conditions: read-out: Activity
Kindly apply the following: Met if viability at 100 µM is less than 9%, Not met in every other case.

The following compounds have reported results that may help.
Compound	Group Label
OC(CCn1nc2c(Br)c(Br)c(Br)c(Br)c2n1)c1cccc(Cl)c1 (stereo not given)	Met
CC(O)CCn1nc2c(Br)c(Br)c(Br)c(Br)c2n1 (racemic)	Met
OC(CCn1nc2c(Br)c(Br)c(Br)c(Br)c2n1)c1cccc(Br)c1 (stereo not given)	Met
C[C@@H](O)CCn1nc2c(Br)c(Br)c(Br)c(Br)c2n1	Not met
Brc1c(Br)c(Br)c2[nH]nnc2c1Br [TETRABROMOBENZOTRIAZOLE]	Not met

### Prompt Does this compound meet the criterion viability at 100 µM < 9%? COc1cccc(C(O)CCn2nc3c(Br)c(Br)c(Br)c(Br)c3n2)c1 (stereo not given)
### Response Not met

### Prompt Does this compound meet the criterion viability at 100 µM < 9%? OC(CCn1nc2c(Br)c(Br)c(Br)c(Br)c2n1)c1ccc(Cl)cc1 (stereo not given)
### Response Met

### Prompt Does this compound meet the criterion viability at 100 µM < 9%? OC(CCn1nc2c(Br)c(Br)c(Br)c(Br)c2n1)c1ccc(F)cc1 (stereo not given)
### Response Met

====

system: MCF7; experiment: Anticancer activity against human MCF7 cells assessed as cell viability at 100 uM after 24 hrs by MTT assay; assay type: functional; settings: MCF7, 24 h, read-out: Activity
Metric: viability at 100 µM (%)
One number for each entry, in %.

Compound	Assay System	viability at 100 µM (%)
C[C@H](O)Cn1nc2c(Br)c(Br)c(Br)c(Br)c2n1	MCF7	25
Brc1c(Br)c(Br)c2[nH]nnc2c1Br	MCF7	109

Quick batch: viability at 100 µM for everything below.
1. OC(CCn1nc2c(Br)c(Br)c(Br)c(Br)c2n1)c1cccc(Br)c1 (centres undefined)
2. OC(CCn1nc2c(Br)c(Br)c(Br)c(Br)c2n1)c1ccc(Br)cc1 (centres undefined)
3. COc1cccc(C(O)CCn2nc3c(Br)c(Br)c(Br)c(Br)c3n2)c1 (centres undefined)
4. OC(CCn1nc2c(Br)c(Br)c(Br)c(Br)c2n1)c1cccc(Cl)c1 (centres undefined)

### Response
1
0
16
0

====

Would you kindly list viability at 100 µM for each of these compounds?
tested on: MCF7; test: Anticancer activity against human MCF7 cells assessed as cell viability at 100 uM after 48 hrs by MTT assay; type: functional; conditions: MCF7, 48 h, read-out: Activity
Numbers only, in %.

Compound	Metric	Recorded Result
C[C@H](O)CCn1nc2c(Br)c(Br)c(Br)c(Br)c2n1	viability at 100 µM	6
C[C@@H](O)CCn1nc2c(Br)c(Br)c(Br)c(Br)c2n1	viability at 100 µM	0
COc1cccc(C(O)CCn2nc3c(Br)c(Br)c(Br)c(Br)c3n2)c1 (stereo not drawn)	viability at 100 µM	6

Quick batch: viability at 100 µM for everything below.
1. OCC(O)Cn1nc2c(Br)c(Br)c(Br)c(Br)c2n1 (racemic)
2. CC(O)Cn1nc2c(Br)c(Br)c(Br)c(Br)c2n1 (racemic)
3. OC(CCn1nc2c(Br)c(Br)c(Br)c(Br)c2n1)c1ccc(Br)cc1 (stereo not drawn)
4. OC(CCn1nc2c(Br)c(Br)c(Br)c(Br)c2n1)c1ccc(F)cc1 (stereo not drawn)

### Response
[8, 6, 0, 0]

Quick batch: viability at 100 µM for everything below.
1. OC(CCn1nc2c(Br)c(Br)c(Br)c(Br)c2n1)c1cccc(Cl)c1 (stereo not drawn)
2. OC(CCn1nc2c(Br)c(Br)c(Br)c(Br)c2n1)c1ccccc1 (racemic)

### Response
0.5
0

Quick batch: viability at 100 µM for everything below.
1. C[C@H](O)Cn1nc2c(Br)c(Br)c(Br)c(Br)c2n1
2. CC(O)CCn1nc2c(Br)c(Br)c(Br)c(Br)c2n1 (racemic)
3. OC(CCn1nc2c(Br)c(Br)c(Br)c(Br)c2n1)c1ccc(Cl)cc1 (stereo not drawn)
4. OC(CCn1nc2c(Br)c(Br)c(Br)c(Br)c2n1)c1cccc(Br)c1 (stereo not drawn)

### Response
1. 8
2. 0
3. 0
4. 0

====

tested on: CCRF-CEM; assay: Anticancer activity against human CCRF-CEM cells assessed as cell viability at 50 uM after 24 hrs by MTT assay; type: functional; conditions: read-out: Activity
Recorded viability at 50 µM split into classes lower segment = under 60%, middle segment = from 60% up to 90%, upper segment = 90% and over

The following compounds have reported results that may help.
Compound	Group Label
OC(CCn1nc2c(Br)c(Br)c(Br)c(Br)c2n1)c1ccc(F)cc1 (stereo not given)	lower segment
OC(CCn1nc2c(Br)c(Br)c(Br)c(Br)c2n1)c1cccc(Br)c1 (stereo not given)	lower segment
C[C@H](O)CCn1nc2c(Br)c(Br)c(Br)c(Br)c2n1	middle segment
OC(CCn1nc2c(Br)c(Br)c(Br)c(Br)c2n1)c1ccc(Br)cc1 (stereo not given)	lower segment
OC(CCn1nc2c(Br)c(Br)c(Br)c(Br)c2n1)c1ccc(Cl)cc1 (stereo not given)	lower segment

### Prompt Determine which band this compound sits in: CC(O)Cn1nc2c(Br)c(Br)c(Br)c(Br)c2n1 (racemic)
### Response upper segment

### Prompt Determine which band this compound sits in: COc1cccc(C(O)CCn2nc3c(Br)c(Br)c(Br)c(Br)c3n2)c1 (stereo not given)
### Response lower segment

### Prompt Determine which band this compound sits in: Brc1c(Br)c(Br)c2[nH]nnc2c1Br
### Response upper segment

### Prompt Determine which band this compound sits in: OC(CCn1nc2c(Br)c(Br)c(Br)c(Br)c2n1)c1cccc(Cl)c1 (stereo not given)
### Response middle segment

Provenance of the data: ChEMBL document CHEMBL3351930
